Origin of values: BigSolDB 2.1

Conditions: in water, 326.15 K
readoutType: solubility (mole fraction)

(Q) Supply recorded solubility (mole fraction) for NC(N)=C([N+](=O)[O-])[N+](=O)[O-] here.
(A) 0.000154

###

Details: in DEF, 340.15 K
readoutType: solubility (mole fraction)
Respond numerically, and do not add a unit to the figure.

(Q) Supply recorded solubility (mole fraction) for NC(N)=C([N+](=O)[O-])[N+](=O)[O-] here.
(A) 0.102

###

Conditions: in DMSO, 303.85 K
readoutType: solubility (mole fraction)
Respond numerically, and do not add a unit to the figure.

(Q) Supply recorded solubility (mole fraction) for NC(N)=C([N+](=O)[O-])[N+](=O)[O-] here.
(A) 0.188

###

Settings: in water, 348.75 K
readoutType: solubility (mole fraction)
Respond numerically, and do not add a unit to the figure.

(Q) Supply recorded solubility (mole fraction) for NC(N)=C([N+](=O)[O-])[N+](=O)[O-] here.
(A) 0.000504

###

Conditions: in DMF, 352.75 K
readoutType: solubility (mole fraction)
Respond numerically, and do not add a unit to the figure.

(Q) Supply recorded solubility (mole fraction) for NC(N)=C([N+](=O)[O-])[N+](=O)[O-] here.
(A) 0.148

###

Details: in 1,4-dioxane, 341.45 K
readoutType: solubility (mole fraction)
Respond numerically, and do not add a unit to the figure.

(Q) Supply recorded solubility (mole fraction) for NC(N)=C([N+](=O)[O-])[N+](=O)[O-] here.
(A) 0.000257

###

Conditions: in cyclohexanone, 370.35 K
readoutType: solubility (mole fraction)
Respond numerically, and do not add a unit to the figure.

(Q) Supply recorded solubility (mole fraction) for NC(N)=C([N+](=O)[O-])[N+](=O)[O-] here.
(A) 0.0138

###

Settings: in DMSO, 328.65 K
readoutType: solubility (mole fraction)

(Q) Supply recorded solubility (mole fraction) for NC(N)=C([N+](=O)[O-])[N+](=O)[O-] here.
(A) 0.214

###

Settings: in DEF, 324.95 K
readoutType: solubility (mole fraction)
Respond numerically, and do not add a unit to the figure.

(Q) Supply recorded solubility (mole fraction) for NC(N)=C([N+](=O)[O-])[N+](=O)[O-] here.
(A) 0.0914

###

Settings: in ethyl acetate, 296.15 K
readoutType: solubility (mole fraction)

(Q) Supply recorded solubility (mole fraction) for NC(N)=C([N+](=O)[O-])[N+](=O)[O-] here.
(A) 0.000116

###

Settings: in water, 343.15 K
readoutType: solubility (mole fraction)
Respond numerically, and do not add a unit to the figure.

(Q) Supply recorded solubility (mole fraction) for NC(N)=C([N+](=O)[O-])[N+](=O)[O-] here.
(A) 0.000365

###

Settings: in gamma-butyrolactone, 343.45 K
readoutType: solubility (mole fraction)
Respond numerically, and do not add a unit to the figure.

(Q) Supply recorded solubility (mole fraction) for NC(N)=C([N+](=O)[O-])[N+](=O)[O-] here.
(A) 0.0202

###

Conditions: in 1,4-dioxane, 314.15 K
readoutType: solubility (mole fraction)
Respond numerically, and do not add a unit to the figure.

(Q) Supply recorded solubility (mole fraction) for NC(N)=C([N+](=O)[O-])[N+](=O)[O-] here.
(A) 0.000102

###

Settings: in gamma-butyrolactone, 304.15 K
readoutType: solubility (mole fraction)

(Q) Supply recorded solubility (mole fraction) for NC(N)=C([N+](=O)[O-])[N+](=O)[O-] here.
(A) 0.0077

###

Conditions: in ethyl acetate, 314.75 K
readoutType: solubility (mole fraction)
Respond numerically, and do not add a unit to the figure.

(Q) Supply recorded solubility (mole fraction) for NC(N)=C([N+](=O)[O-])[N+](=O)[O-] here.
(A) 0.00027

###

Settings: in water, 303.45 K
readoutType: solubility (mole fraction)

(Q) Supply recorded solubility (mole fraction) for NC(N)=C([N+](=O)[O-])[N+](=O)[O-] here.
(A) 3.5e-05

###

Settings: in water, 296.15 K
readoutType: solubility (mole fraction)

(Q) Supply recorded solubility (mole fraction) for NC(N)=C([N+](=O)[O-])[N+](=O)[O-] here.
(A) 2e-05

###

Conditions: in gamma-butyrolactone, 368.55 K
readoutType: solubility (mole fraction)
Respond numerically, and do not add a unit to the figure.

(Q) Supply recorded solubility (mole fraction) for NC(N)=C([N+](=O)[O-])[N+](=O)[O-] here.
(A) 0.0373

###

Conditions: in cyclohexanone, 343.15 K
readoutType: solubility (mole fraction)
Respond numerically, and do not add a unit to the figure.

(Q) Supply recorded solubility (mole fraction) for NC(N)=C([N+](=O)[O-])[N+](=O)[O-] here.
(A) 0.00693

###

Settings: in ethyl acetate, 344.65 K
readoutType: solubility (mole fraction)

(Q) Supply recorded solubility (mole fraction) for NC(N)=C([N+](=O)[O-])[N+](=O)[O-] here.
(A) 0.000544

###

Conditions: in cyclohexanone, 291.95 K
readoutType: solubility (mole fraction)
Respond numerically, and do not add a unit to the figure.

(Q) Supply recorded solubility (mole fraction) for NC(N)=C([N+](=O)[O-])[N+](=O)[O-] here.
(A) 0.00244

###

Conditions: in gamma-butyrolactone, 332.55 K
readoutType: solubility (mole fraction)
Respond numerically, and do not add a unit to the figure.

(Q) Supply recorded solubility (mole fraction) for NC(N)=C([N+](=O)[O-])[N+](=O)[O-] here.
(A) 0.0153

###

Conditions: in gamma-butyrolactone, 357.85 K
readoutType: solubility (mole fraction)
Respond numerically, and do not add a unit to the figure.

(Q) Supply recorded solubility (mole fraction) for NC(N)=C([N+](=O)[O-])[N+](=O)[O-] here.
(A) 0.0313

###

Details: in gamma-butyrolactone, 300.15 K
readoutType: solubility (mole fraction)

(Q) Supply recorded solubility (mole fraction) for NC(N)=C([N+](=O)[O-])[N+](=O)[O-] here.
(A) 0.0064

###

Details: in water, 328.55 K
readoutType: solubility (mole fraction)
Respond numerically, and do not add a unit to the figure.

(Q) Supply recorded solubility (mole fraction) for NC(N)=C([N+](=O)[O-])[N+](=O)[O-] here.
(A) 0.000198

###

Conditions: in 1,4-dioxane, 339.65 K
readoutType: solubility (mole fraction)
Respond numerically, and do not add a unit to the figure.

(Q) Supply recorded solubility (mole fraction) for NC(N)=C([N+](=O)[O-])[N+](=O)[O-] here.
(A) 0.000215

###

Settings: in DEF, 367.45 K
readoutType: solubility (mole fraction)
Respond numerically, and do not add a unit to the figure.

(Q) Supply recorded solubility (mole fraction) for NC(N)=C([N+](=O)[O-])[N+](=O)[O-] here.
(A) 0.15

###

Details: in DMSO, 339.85 K
readoutType: solubility (mole fraction)
Respond numerically, and do not add a unit to the figure.

(Q) Supply recorded solubility (mole fraction) for NC(N)=C([N+](=O)[O-])[N+](=O)[O-] here.
(A) 0.224

###

Settings: in NMP, 363.85 K
readoutType: solubility (mole fraction)

(Q) Supply recorded solubility (mole fraction) for NC(N)=C([N+](=O)[O-])[N+](=O)[O-] here.
(A) 0.227

###

Conditions: in ethyl acetate, 334.15 K
readoutType: solubility (mole fraction)
Respond numerically, and do not add a unit to the figure.

(Q) Supply recorded solubility (mole fraction) for NC(N)=C([N+](=O)[O-])[N+](=O)[O-] here.
(A) 0.000444

###

Details: in ethyl acetate, 324.35 K
readoutType: solubility (mole fraction)
Respond numerically, and do not add a unit to the figure.

(Q) Supply recorded solubility (mole fraction) for NC(N)=C([N+](=O)[O-])[N+](=O)[O-] here.
(A) 0.000332

###

Conditions: in DMF, 327.85 K
readoutType: solubility (mole fraction)

(Q) Supply recorded solubility (mole fraction) for NC(N)=C([N+](=O)[O-])[N+](=O)[O-] here.
(A) 0.122

###

Conditions: in DMSO, 319.15 K
readoutType: solubility (mole fraction)
Respond numerically, and do not add a unit to the figure.

(Q) Supply recorded solubility (mole fraction) for NC(N)=C([N+](=O)[O-])[N+](=O)[O-] here.
(A) 0.204

###

Details: in NMP, 318.15 K
readoutType: solubility (mole fraction)

(Q) Supply recorded solubility (mole fraction) for NC(N)=C([N+](=O)[O-])[N+](=O)[O-] here.
(A) 0.186

###

Conditions: in 1,4-dioxane, 347.55 K
readoutType: solubility (mole fraction)
Respond numerically, and do not add a unit to the figure.

(Q) Supply recorded solubility (mole fraction) for NC(N)=C([N+](=O)[O-])[N+](=O)[O-] here.
(A) 0.000315

###

Details: in DMSO, 350.15 K
readoutType: solubility (mole fraction)
Respond numerically, and do not add a unit to the figure.

(Q) Supply recorded solubility (mole fraction) for NC(N)=C([N+](=O)[O-])[N+](=O)[O-] here.
(A) 0.233
